From: patent US20230159502A1

- Assay system: NL20 human bronchial epithelial cells expressing human Z-AAT (Homo sapiens, UniProt P01009, E366K)
- Construct: doxycycline added with compounds)
- Sequence (P01009 25-418 E366K): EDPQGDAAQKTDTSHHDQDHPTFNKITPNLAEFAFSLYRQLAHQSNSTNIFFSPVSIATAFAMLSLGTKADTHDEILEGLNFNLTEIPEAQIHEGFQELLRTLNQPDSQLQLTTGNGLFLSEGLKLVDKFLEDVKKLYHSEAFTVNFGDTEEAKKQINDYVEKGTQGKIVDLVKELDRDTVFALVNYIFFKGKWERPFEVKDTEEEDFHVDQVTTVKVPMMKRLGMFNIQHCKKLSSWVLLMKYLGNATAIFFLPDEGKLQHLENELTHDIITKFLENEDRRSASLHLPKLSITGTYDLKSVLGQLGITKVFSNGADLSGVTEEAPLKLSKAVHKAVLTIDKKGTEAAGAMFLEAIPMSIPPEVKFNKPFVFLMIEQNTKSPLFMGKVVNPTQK
- Measurement description: AAT Function Assay (MSD Assay NL20-SI Cell Line)
- Settings: read-out: NL20 Functional EC50
Measured metric: EC50

Some solved entries appear below for comparison.
> print(dat)
                    structure.smiles.string  observed.measurement
1  Cc1cc(-n2c(C3CCOCC3)c(-c3cccc(C(=O)O)c3)c3c(O)cc(F)cc32)ccc1F              < 500 nM
2  COc1cc(-n2c(C(C)(C)CC#N)c(-c3ccc(C(=O)O)cc3)c3c(O)c(F)ccc32)ccc1F              < 500 nM

Would you kindly share the measured EC50 for `COCC1(c2c(-c3cnc(C(=O)O)c(Cl)c3)c3c(O)cc(F)cc3n2-c2ccc(F)c(OC)c2)CCC1` ?
< 500 nM

I have this compound here, `CC1(c2c(-c3ccc(C(=O)O)cc3)c3c(O)cccc3n2-c2ccc(F)cc2)CCOCC1` , and I need its recorded EC50.
500 to 2000 nM

Record request: EC50 value, item `Cc1cc(-n2c(C(C)(C)CF)c(-c3ccc(C(=O)O)cc3)c3c(O)cc(F)cc32)ccc1F`
< 500 nM

Field request: EC50 | item: `COCC(C)(C)c1c(-c2ccc(C(=O)O)c(F)c2)c2c(O)cc(F)cc2n1-c1ccc(F)c(OC)c1`
< 500 nM

Item under review: `N#Cc1cc(O)c2c(-c3ccc(C(=O)O)cc3)c(C3CCOCC3)n(-c3ccc(F)cc3)c2c1` . Reported EC50?
> 2000 nM

What measured EC50 goes with `Cc1cc(-n2c(C3(CC#N)CCC3)c(-c3ccc(C(=O)O)cc3)c3c(O)c(F)ccc32)ccc1F` ?
< 500 nM

Field request: EC50 | item: `CC(C)(CC#N)c1c(-c2ccc(C(=O)O)cc2)c2c(O)cccc2n1-c1ccc(F)cc1`
< 500 nM

GET /values?readout=EC50&item= `COC12CCC(c3c(-c4ccc(C(=O)O)cc4)c4c(O)cc(F)cc4n3-c3ccc(F)c(F)c3)(CC1)CC2`
500 to 2000 nM

Any idea what its EC50 is? The compound is `Cc1cc(-n2c(C(C)(C)CC#N)c(-c3sc(C(=O)O)cc3C)c3c(O)cc(F)cc32)ccc1F`
500 to 2000 nM

====

- Assay system: purified Z-AAT protein (Homo sapiens, UniProt P01009, E366K)
- Construct: Purified Z-AAT protein from human plasma
- Sequence (P01009 25-418 E366K): as above
- Measurement description: Biochemical Assay (Z-AAT Elastase Activity Assay)
- Settings: purified Z-AAT pre-incubated with compound 1 hour, then hNE; N.D. = activity not detected up to 30 μM
Measured metric: IC50

> print(dat)
                                   molecule  observed.measurement
1  Cc1cc(-n2c(C3(C)CCCOC3)c(-c3ccc(C(=O)O)cc3)c3c(O)cc(F)cc32)ccc1F (stereo not drawn)                < 2 µM
2  COCC(C)(C)c1c(-c2ccc(C(=O)O)cc2F)c2c(O)cccc2n1-c1ccc(F)c(F)c1                < 2 µM
3  COc1cc(-n2c(C(C)(C)CC#N)c(-c3ccc(C(=O)O)c(F)c3)c3c(O)cc(Cl)cc32)ccc1F                < 2 µM
4  COCC(C)(C)c1c(-c2ccc(C(=O)O)cc2)c2c(O)cc(F)cc2n1-c1ccc(OC)c(F)c1               > 30 µM
5  COCC(C)(C)c1c(-c2ccc(C(=O)O)cc2)c2c(O)cccc2n1-c1ccc(F)cc1                > 5 µM

If you can, please state the reported IC50 value of `Cc1cc(-n2c(C(C)(C)CC#N)c(-c3ccc(C(=O)O)cc3)c3c(O)cc(Cl)cc32)ccc1F` .
< 2 µM

Please give the measured IC50 for this molecule: `COc1cc(-n2c(C(C)(C)CO)c(-c3ccc(C(=O)O)c(OC)c3)c3c(O)cc(F)cc32)ccc1F`
> 30 µM

Sample `COCC(C)(C)c1c(-c2cc(C)c(C(=O)O)cc2F)c2c(O)cc(F)cc2n1-c1ccc(F)c(OC)c1` — what was its IC50?
2 to 5 µM

Name the recorded IC50 for `COc1cc(-n2c(C3(CC#N)CCC3)c(-c3ccc(C(=O)O)cc3)c3c(O)c(F)ccc32)ccc1F` .
< 2 µM

# get_value(readout='IC50', item= COC1(C(=O)O)CC(c2c(C(C)C)n(-c3ccc(F)c(C)c3)c3ccc(F)cc23)C1 (stereo not drawn) [Compound W4] )
> 30 µM

So what's the measured IC50 for this one? `COc1cc(-n2c(C(C)(C)CO)c(-c3ccc(C(=O)O)cc3)c3c(O)cccc32)ccc1F`
> 30 µM

So what's the measured IC50 for this one? `CC(C)(CC#N)c1c(-c2ccc(C(=O)O)c(F)c2)c2c(O)cc(Cl)cc2n1-c1ccc(F)c(F)c1`
< 2 µM

What value of IC50 has been recorded for this entry: `Cc1cc(-n2c(C(C)C)c(CC3(C(=O)O)CC3)c3cc(F)ccc32)ccc1F`
> 30 µM

Report IC50 for `CN(C)C(=O)CC(C)(C)c1c(-c2ccc(C(=O)O)cc2)c2c(O)cccc2n1-c1ccc(F)cc1` please.
> 5 µM

Query (molecule): `NC(=O)c1ccc(-n2c(C3CCOCC3)c(-c3ccc(F)cc3)c3cccc(O)c32)cc1` ; field requested: IC50
> 5 µM
